Listing of entries alongside the reported pKa.
Conditions: acidic group
Give a plain numeric answer without units written out.

chem smiles	pKa
Cc1ncc(CO)c(C[NH3+])c1O	8.02
CC(C)CN[N+](=O)[O-]	6.38
CCc1ccc(C(=O)/C=C/C(=O)O)cc1	3.38
NNC(=O)CS	8.05
C[NH+](C)CCc1c[nH]c2ccc(O)cc12	9.73
O=[N+]([O-])c1ccc(S(=O)(=O)NCc2ccccc2)cc1	10.1

In: Item under review: O=C(O)[C@@H]1O[C@H](Oc2ccc(-c3ccccc3)cc2)[C@@H](O)[C@H](O)[C@H]1O . Reported pKa?
Out: 3.1

In: Also, Cc1ccccc1S(=O)O please.
Out: 1.47

In: Also, COc1cccc(/C=C/C(=O)O)c1 please.
Out: 4.38

In: Also, O=c1ccc2ccccc2cc1O please.
Out: 10

In: Also, CC(C)=C(C#N)C(=O)O please.
Out: 3.04

In: Also, COO please.
Out: 11.5

In: Also, O=C(O)c1cccc(Cl)c1 please.
Out: 3.8

In: Also, Oc1cncnc1 please.
Out: 6.78

In: Also, COc1cc(C(C)=O)ccc1O please.
Out: 7.65

====

Settings: basic group
Listing of entries alongside the reported pKa.
Give a plain numeric answer without units written out.

For orientation, consider the following solved cases.
compound	recorded endpoint	endpoint result
N/C(CC[NH3+])=N\O	pKa	3.75
CCCCCN(CC(C)O)CC(O)CC (centres undefined)	pKa	9.1
CO[C@H]1CC=C2CCN3CCC(CO)=C(CCO)[C@]23C1	pKa	8.69

In: Item under review: CN1CC[NH2+]CC1 . Reported pKa?
Out: 5.05

In: Also, CNNC1CC[NH+](C)CC1 please.
Out: 5.95

In: Also, CC(=O)OC1CN2CCC1CC2 (centres undefined) please.
Out: 9.27

In: Also, CCN(CC)CCCC(C)Nc1cc(OC)cc2cccnc12 (centres undefined) please.
Out: 10.3

In: Also, c1ccc(CN(CC2CO2)CC2CO2)cc1 (centres undefined) please.
Out: 5.75

In: Also, CN1CCC[C@H]1c1cccnc1 please.
Out: 7.85

====

Settings: basic group
Category scheme (pKa): bin 1: < 4; bin 2: ≥ 4 and < 6; bin 3: ≥ 6

Known results for compounds:
compound	category label
Cc1ncc[nH+]c1C	bin 1
c1ncc(Cc2c[nH+]c[nH]2)[nH]1	bin 2
Nc1ccc(O)c2ncccc12	bin 2
CCc1ncc[nH]1	bin 3
c1ccc2ncncc2c1	bin 1

In: Input Oc1ccc2c(cnc3ccccc32)c1 ; output its category
Out: bin 2

In: Also, CC1/C(=N\O)C[C@@H]2N=C(c3ccccc3)O[C@@]13[C@@H]1OC(=O)[C@H](C)[C@H]1CC[C@]23C (stereo not given in full) please.
Out: bin 2

In: Also, CCN(N)CC please.
Out: bin 3

In: Also, CCNCCN please.
Out: bin 3

====

Listing of entries alongside the reported pKa.
Conditions: basic group
Give a plain numeric answer without units written out.

For orientation, consider the following solved cases.
molecule	pKa
N#CC(CCN1CCCCC1)(c1ccccc1)c1ccccc1	8.07
CC(CN(C)C)C(C#N)(c1ccccc1)c1ccccc1 (stereo not drawn)	7.9
C1CN(CC[NH+]2CCOCC2)CCO1	3.63
CNNC	5.2
CC(C)(N)C(N)=S	7.61

In: Item under review: O=C([O-])c1ccnc2ccccc12 . Reported pKa?
Out: 4.76

In: Also, CN(CCN)CC[NH+](C)C please.
Out: 9.23

In: Also, C/C=C(/C)C(=O)O[C@H]1CC[C@@]2(C)[C@@H]3CC[C@H]4[C@]5(O)C[C@H](O)[C@@]6(O)[C@@H](CN7C[C@@H](C)CC[C@H]7[C@@]6(C)O)[C@]5(O)C[C@@]42O[C@]13O please.
Out: 8.85

====

Conditions: basic group
So basically: pKa at 6 or higher? That is 1.0. Lower than 6? That is 0.0.

compound	category label
Nc1nc([Se-])c2ncn([C@H]3O[C@@H](CO)[C@H](O)[C@@H]3O)c2n1	1.0
C/N=c1/oc2c(n1C)CCCC2	1.0
Cc1cnccn1	0.0

In: Say whether CCN(CC)CCBr shows pKa of 6 or more.
Out: 1.0

In: Also, Oc1c(Cl)cc(Cl)c2cccnc12 please.
Out: 0.0

In: Also, CNCC(=O)NCCc1c[nH]cn1 please.
Out: 1.0

In: Also, CCOCCn1c(N2CCCN(CCCCn3cccn3)CC2)nc2ccccc21 please.
Out: 1.0

In: Also, C=C(C)C(N)O (stereo not given) please.
Out: 1.0

In: Also, N#CC1C(=O)Cc2ccccc21 (stereo not given) please.
Out: 0.0

In: Also, c1ccc(-c2ncc[nH]2)cc1 please.
Out: 1.0

====

Settings: acidic group
recorded endpoint: pKa
Give a plain numeric answer without units written out.

For orientation, consider the following solved cases.
compound	pKa
FC(F)(F)c1nc2ncncc2[nH]1	5.12
O=S(O)CCCc1ccccc1	2.05
CC1=CC(C)(C)SC(=S)N1	10.9
CCC(=O)CC(=O)CC	9.82
O=C(O)[C@H](P)CC[C@H](P)C(=O)O	3.54
O=C1NC(C(=O)O)CC1O (stereo not drawn)	3.8
O/N=C/c1ccco1	10.8

In: Item under review: CC(C)(S)[C@@H](C(=O)O)n1cc[nH+]c1Cc1ccccc1 . Reported pKa?
Out: 2.81

====

Details: acidic group
recorded endpoint: pKa

For orientation, consider the following solved cases.
compound	endpoint result
O=C(C[N+](=O)[O-])c1ccccc1	5.19
Nc1nc2c(ncn2[C@@H]2C[C@@H](O)[C@H](CO)O2)c(O)[nH+]1	-0.97
c1ccc(CNc2ncnc3[nH]ncc23)cc1	10.9
Cc1cccc(/C=N/O)n1	10
NC(=O)[C@@H]1CCCN1	8.82

In: Item under review: CC(C)c1cccc2ccc(O)cc12 . Reported pKa?
Out: 9.52

In: Also, O=C(NOC(=O)c1ccccc1)c1ccccc1 please.
Out: 6

In: Also, Oc1ccc2cccc(Cl)c2c1 please.
Out: 8.69

====

Listing of entries alongside the reported pKa.
Details: acidic group
Give a plain numeric answer without units written out.

compound	endpoint result
Nc1ccc(S(=O)(=O)Nc2cncnc2)cc1	6.62

In: Item under review: Nc1ncc([N+](=O)[O-])cn1 . Reported pKa?
Out: 14.7

In: Also, CCc1cc(C)cc(O)c1 please.
Out: 10.1

In: Also, C[Si](C)(C)O[Si](C)(C)CCCC(=O)O please.
Out: 5.03

In: Also, CC(=O)C(Cc1ccc([N+](=O)[O-])cc1)C(C)=O please.
Out: 9.54

In: Also, [NH3+]C(c1cccc(O)c1[O-])P(=O)([O-])[O-] (stereo not drawn) please.
Out: 12.4

In: Also, C[NH+]1C[C@@H](C(=O)O)C=C2c3cccc4[nH]cc(c34)C[C@@H]21 please.
Out: 3.28

In: Also, Cc1ccccc1C(=S)Nc1ccccc1 please.
Out: 10.9

In: Also, Cc1c(Cn2cc[nH+]c2)oc2ccc(C(=O)O)cc12 please.
Out: 3.91

In: Also, Cc1cc(C(=O)O)ccc1Cl please.
Out: 4.07

In: Also, COc1ccc(C(=S)Nc2ccc(C)cc2)cc1 please.
Out: 11.8

In: Also, CN(C)Cc1cc(C(C)(C)C)ccc1O please.
Out: 11.5

In: Also, O=C(O)C(c1ccc(-c2ccccc2)cc1)C1(O)CCCCC1 (stereo not drawn) please.
Out: 3.59

====

Details: acidic group
Listing of entries alongside the reported pKa.
Give a plain numeric answer without units written out.

For orientation, consider the following solved cases.
molecule	pKa
O=C(/C=C(/[70SH])c1ccccc1)Nc1ccccc1	4.51
O=C(O)C[Se]c1cccc([N+](=O)[O-])c1	3.55
O=C(O)c1ccc(OCc2ccccc2)cc1	4.44

API: the following record is the query input.
In: Item under review: [O-]c1ccccc1O . Reported pKa?
Out: 11.6

====

Settings: acidic group
Listing of entries alongside the reported pKa.

For orientation, consider the following solved cases.
compound	pKa
[S-]c1nc(S)c2[nH]cnc2n1	9.97
O=C(O)[C@@H]1C[C@@H]1c1ccccc1	4.82
CC(C)(C(N)=O)S(=O)(=O)NC(N)=O	5.15
C/C(=C\C=C\C(C)C(=O)O)[C@H]1C[NH2+][C@H](C(=O)O)[C@H]1CC(=O)O (some centres undefined)	2.1
O=C(O)c1ccc(/N=C/c2ccccc2)cc1	4.47
CC(N)C(N)=O (centres undefined)	8.02
Oc1nsc2ccccc12	7.01
CCOC(=O)COc1ccc(Oc2ccc(O)c(C[NH3+])c2)c(Cl)c1Cl	8.55
Cc1ccc(C)c(O)c1	10.4
Cc1c([N+](=O)[O-])cc(Cl)c2nnn(O)c12	3.17

In: Item under review: CC/C=C/CC(=O)N[C@H]1C(=O)N2[C@H]1SC(C)(C)[C@H]2C(=O)O . Reported pKa?
Out: 2.84

In: Also, COc1ccc(C(=O)O[C@H]2O[C@@H](C(=O)O)[C@H](O)[C@@H](O)[C@@H]2O)cc1OC please.
Out: 3.47

In: Also, N#CC(C#N)=NNc1ccc([N+](=O)[O-])cc1 please.
Out: 5.5

In: Also, CCCCCCc1c(-c2ccccc2)n[nH]c1O please.
Out: 8.6

Where do these numbers come from? They come from the pKa sets of Baltruschat and Czodrowski (2020).
